Reported abundance fitness by item:
B1: DnaJ homolog subfamily C member 5, residues 16 to 77; numbered along this chain, Q9H3Z4 (parent)
chain: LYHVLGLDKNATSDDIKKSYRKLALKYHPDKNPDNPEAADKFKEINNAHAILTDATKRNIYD

- Variants of: B1
- assay-text: abundance fitness (aPCA) (normalised: wild type 0, dead -1); higher = more abundant; growth selection in yeast, the domain comes from the species named
- condition-description: Homo sapiens
reported-endpoint: abundance fitness

INSERT INTO assay_data (sequence_data, assay_value) VALUES
  ('LYHVLGLDKNATSDDIKKSYRKLALKYHPDKNPDNPEAADKFKEINNAHQILTDATKRNIYD [A50Q]', -0.294),
  ('LYHVLGLDKNATSDDIKKSYRKLALKYHPDKNPDNPEAADTFKEINNAHAILTDATKRNIYD [K41T]', -0.197),
  ('LYHVLVLDKNATSDDIKKSYRKLALKYHPDKNPDNPEAADKFKEINNAHAILTDATKRNIYD [G6V]', -1.42),
  ('LYHVLGLCKNATSDDIKKSYRKLALKYHPDKNPDNPEAADKFKEINNAHAILTDATKRNIYD [D8C]', -0.497),
  ('LYHVLGLDKNATMDDIKKSYRKLALKYHPDKNPDNPEAADKFKEINNAHAILTDATKRNIYD [S13M]', 0.04),
  ('LYHVLGLDKNATSDDIKKSYRKLALKYHPDKNPDNPEAADKFKEINNAHAILTDATKRNIYY [D62Y]', -0.849),
  ('LYHVLGLDKNATSDDEKKSYRKLALKYHPDKNPDNPEAADKFKEINNAHAILTDATKRNIYD [I16E]', -0.305),
  ('LYHVGGLDKNATSDDIKKSYRKLALKYHPDKNPDNPEAADKFKEINNAHAILTDATKRNIYD [L5G]', -0.713),
  ('LYHVLGLDKNNTSDDIKKSYRKLALKYHPDKNPDNPEAADKFKEINNAHAILTDATKRNIYD [A11N]', -0.125),
  ('LYHVLGLDKNATSDDIKKSYRKLALKYHPDKNPDNPEAADKFKEINNAHAILTDATKRNIID [Y61I]', -0.129),
  ('LYHVLGLDKNATSDDIKKSYRKLALKYHPDKNPDNPEAADKFKEINNAHAILTDATWRNIYD [K57W]', -0.99),
  ('LYHVLGLDKNATSDDIKKSYRKLALKYHPDKNPDNPEAADKFKEINNAHAILKDATKRNIYD [T53K]', -0.011),
  ('LYHVLGLDKNATSDDIKKSYRKLALKYHPDKNPDNPEAADKFKEINNAHAILTDATKRYIYD [N59Y]', -0.471),
  ('LYHRLGLDKNATSDDIKKSYRKLALKYHPDKNPDNPEAADKFKEINNAHAILTDATKRNIYD [V4R]', -0.765),
  ('LYHVLGLDKYATSDDIKKSYRKLALKYHPDKNPDNPEAADKFKEINNAHAILTDATKRNIYD [N10Y]', -0.796),
  ('LYHVLGLDKNATSDDIKKSYRKLALKYHPDKNPDNPEAADKFKEILNAHAILTDATKRNIYD [N46L]', -0.169),
  ('LYHVLGLDKNATSDDIKKSYRKLALKYHQDKNPDNPEAADKFKEINNAHAILTDATKRNIYD [P29Q]', -0.377),
  ('LYHVLGLDKNATSDDIKKSYRKLALKYHPDKNPDNPEAADKFKEINNAHAIWTDATKRNIYD [L52W]', -0.454),
  ('LYHVLGLDKNATSDDAKKSYRKLALKYHPDKNPDNPEAADKFKEINNAHAILTDATKRNIYD [I16A]', -0.32),
  ('LYHVLGLDKNATSDDIKKCYRKLALKYHPDKNPDNPEAADKFKEINNAHAILTDATKRNIYD [S19C]', -0.088),
  ('LQHVLGLDKNATSDDIKKSYRKLALKYHPDKNPDNPEAADKFKEINNAHAILTDATKRNIYD [Y2Q]', -0.358),
  ('LYHVLGLDKNATSDDIKKSYRKLALKYHPDKNPDNPEAADKFKEINNAHAILTDADKRNIYD [T56D]', -0.095),
  ('LYHVLGLDKNPTSDDIKKSYRKLALKYHPDKNPDNPEAADKFKEINNAHAILTDATKRNIYD [A11P]', -0.536),
  ('LYHVLGLDKNATSDDIKKSYRKLALKYHPDKNPDNPEAADKFKEINNAHAILTQATKRNIYD [D54Q]', -0.666),
  ('LYHVLGLDKNAISDDIKKSYRKLALKYHPDKNPDNPEAADKFKEINNAHAILTDATKRNIYD [T12I]', -0.412),
  ('LYHVLGLDKNATSDDIKKSYRKLALKYHPDKNPDNPEAADKFKEINNAHAILTDATKRNIYR [D62R]', -0.428),
  ('LYHVLGLDKNATSDPIKKSYRKLALKYHPDKNPDNPEAADKFKEINNAHAILTDATKRNIYD [D15P]', -0.643),
  ('LYHVLGLDKNATSDDIKKSYRKLALKYHPDKNPDNPEAADKFKCINNAHAILTDATKRNIYD [E44C]', -0.524),
  ('LYHVLGLDKNATSDDIKKSYRKLALKYHPDKNPDNPEAADKFKEINRAHAILTDATKRNIYD [N47R]', -0.142),
  ('LYHVLGLDKNATSDDIKKSYRKLALKYHPDKNPDNPEAADKFKEANNAHAILTDATKRNIYD [I45A]', -0.181),
  ('LYHVLGLDKNATSDDIKKSYRKLALKYHPDKNPDNPEAADKFKEINNAHAILQDATKRNIYD [T53Q]', -0.186),
  ('LYHVLGLDKNATSDDIKKSYRKLALKYHPDKKPDNPEAADKFKEINNAHAILTDATKRNIYD [N32K]', -0.353),
  ('LYHVLGLDKNATSDDIKKSYRKLALKYHPDKNPDNPEAADKFKELNNAHAILTDATKRNIYD [I45L]', -0.026),
  ('LYHVLGLDKSATSDDIKKSYRKLALKYHPDKNPDNPEAADKFKEINNAHAILTDATKRNIYD [N10S]', -0.142),
  ('LYHVLGLDKNATSDDSKKSYRKLALKYHPDKNPDNPEAADKFKEINNAHAILTDATKRNIYD [I16S]', -0.435),
  ('LYHVLGLDKNLTSDDIKKSYRKLALKYHPDKNPDNPEAADKFKEINNAHAILTDATKRNIYD [A11L]', -0.941),
  ('LYHVLGLDKNATSDDIKKSYRKLALKYHPDKNPDNPEAADKFKEINNAIAILTDATKRNIYD [H49I]', -0.639),
  ('LYHVLGLDKNATSDDIKKSYRKLKLKYHPDKNPDNPEAADKFKEINNAHAILTDATKRNIYD [A24K]', -0.034),
  ('LYHVLGLDKNATSDDIKDSYRKLALKYHPDKNPDNPEAADKFKEINNAHAILTDATKRNIYD [K18D]', -0.062),
  ('LYHVLGLDKNATSDDIKKSYRKLALKYHPDKNPDNPEAADKFKEINNAHAILTDATKRVIYD [N59V]', -0.121),
  ('LYHVLGLDKNATSDDIKKSYRKLALKYHPDKNPDNPEAADKFKEINNAGAILTDATKRNIYD [H49G]', -0.052),
  ('LYHVLGLDKNATSDDIKKSYRKLALKYHPDKNPLNPEAADKFKEINNAHAILTDATKRNIYD [D34L]', -0.641),
  ('LYHVLGLDKNATSDDIKKSYRKLAPKYHPDKNPDNPEAADKFKEINNAHAILTDATKRNIYD [L25P]', -0.21),
  ('LYHVLGLDKTATSDDIKKSYRKLALKYHPDKNPDNPEAADKFKEINNAHAILTDATKRNIYD [N10T]', -0.073),
  ('LYHVLGLDKNATSDDIKKSYRKLALKYHPDKNPDNPEAADKFKEINNAHAILTDATKRNIDD [Y61D]', 0.22),
  ('LYAVLGLDKNATSDDIKKSYRKLALKYHPDKNPDNPEAADKFKEINNAHAILTDATKRNIYD [H3A]', -0.14);

Numbers sourced from the Human Domainome abundance scans (Beltran et al. 2025).
